# assayProtocol: Absorption spectrum, emission spectrum and extinction coefficient in toluene solution
# Format: physicochemical
# measurementParameters: maximum absorption peak
quantityMeasured: Molar extinction coefficient of the toluene solution

1) CCc1cccc(CC)c1N(c1ccc(C(C)(C)C)cc1)c1cc(N(c2ccc(C(C)(C)C)cc2)c2c(CC)cccc2CC)c2ccc3c(N(c4ccc(C(C)(C)C)cc4)c4c(CC)cccc4CC)cc(N(c4ccc(C(C)(C)C)cc4)c4c(CC)cccc4CC)c4ccc1c2c43 [compound 9]
5.3 × 10^4 L · mo 1^−1
2) CCCCCCCCc1ccc(N(c2ccc(C(C)C)cc2-c2cc(F)c(F)c(F)c2)c2cc(N(c3ccc(CCCCCCCC)cc3)c3ccc(C(C)C)cc3-c3cc(F)c(F)c(F)c3)c3ccc4c(N(c5ccc(CCCCCCCC)cc5)c5ccc(C(C)C)cc5-c5cc(F)c(F)c(F)c5)cc(N(c5ccc(CCCCCCCC)cc5)c5ccc(C(C)C)cc5-c5cc(F)c(F)c(F)c5)c5ccc2c3c54)cc1 [compound 20]
5.5 × 10^4 L · mo 1^−1

Prompt: Reported Molar extinction coefficient of the toluene solution, compound CCCCCCCCc1ccc(-c2cc(C(C)C)ccc2N(c2cc(F)c(F)c(F)c2)c2cc(N(c3cc(F)c(F)c(F)c3)c3ccc(C(C)C)cc3-c3ccc(CCCCCCCC)cc3)c3ccc4c(N(c5cc(F)c(F)c(F)c5)c5ccc(C(C)C)cc5-c5ccc(CCCCCCCC)cc5)cc(N(c5cc(F)c(F)c(F)c5)c5ccc(C(C)C)cc5-c5ccc(CCCCCCCC)cc5)c5ccc2c3c54)cc1 [compound 13] : ____
Response: 5.9 × 10^4 L · mo 1^−1

Prompt: Reported Molar extinction coefficient of the toluene solution, compound CCCCCCC1(CCCCCC)c2ccccc2-c2ccc(-c3ccccc3-c3ccc4c5cccc6c(-c7ccccc7-c7ccc8c(c7)C(CCCCCC)(CCCCCC)c7ccccc7-8)ccc(c7cccc3c74)c65)cc21 [comparative compound 1, reference compound] : ____
Response: 4.3 × 10^4 L · mo 1^−1

Prompt: Reported Molar extinction coefficient of the toluene solution, compound Cc1cccc(C)c1N(c1cc(C(C)(C)C)cc(C(C)(C)C)c1)c1cc(N(c2cc(C(C)(C)C)cc(C(C)(C)C)c2)c2c(C)cccc2C)c2ccc3c(N(c4cc(C(C)(C)C)cc(C(C)(C)C)c4)c4c(C)cccc4C)cc(N(c4cc(C(C)(C)C)cc(C(C)(C)C)c4)c4c(C)cccc4C)c4ccc1c2c43 [compound 5] : ____
Response: 5.6 × 10^4 L · mo 1^−1

Prompt: Reported Molar extinction coefficient of the toluene solution, compound CC(C)(C)c1ccc2c(c1)c1cc(C(C)(C)C)cc3c1n2-c1cc(-c2c(-c4ccccc4)cc(-c4ccccc4)cc2-c2ccccc2)cc2c1B3c1cc3c4ccccc4c4ccccc4c3c3c4c5c6ccccc6c6ccccc6c5ccc4n-2c13 [E3] : ____
Response: 6.6 × 10^4 L · mo 1^−1

Prompt: Reported Molar extinction coefficient of the toluene solution, compound CCCCCCCCc1ccc(-c2cc(N(c3ccc(C(C)(C)C)cc3)c3ccc(C(C)(C)C)cc3)ccc2N(c2cc(F)c(F)c(F)c2)c2cc(N(c3cc(F)c(F)c(F)c3)c3ccc(N(c4ccc(C(C)(C)C)cc4)c4ccc(C(C)(C)C)cc4)cc3-c3ccc(CCCCCCCC)cc3)c3ccc4c(N(c5cc(F)c(F)c(F)c5)c5ccc(N(c6ccc(C(C)(C)C)cc6)c6ccc(C(C)(C)C)cc6)cc5-c5ccc(CCCCCCCC)cc5)cc(N(c5cc(F)c(F)c(F)c5)c5ccc(N(c6ccc(C(C)(C)C)cc6)c6ccc(C(C)(C)C)cc6)cc5-c5ccc(CCCCCCCC)cc5)c5ccc2c3c54)cc1 [compound 18] : ____
Response: 5.1 × 10^4 L · mo 1^−1
